Molecular target: active p38 alpha enzyme (Upstate Biotechnology) (Homo sapiens)
Construct: purchased Upstate Biotechnology
Sequence (Q16539 whole entry): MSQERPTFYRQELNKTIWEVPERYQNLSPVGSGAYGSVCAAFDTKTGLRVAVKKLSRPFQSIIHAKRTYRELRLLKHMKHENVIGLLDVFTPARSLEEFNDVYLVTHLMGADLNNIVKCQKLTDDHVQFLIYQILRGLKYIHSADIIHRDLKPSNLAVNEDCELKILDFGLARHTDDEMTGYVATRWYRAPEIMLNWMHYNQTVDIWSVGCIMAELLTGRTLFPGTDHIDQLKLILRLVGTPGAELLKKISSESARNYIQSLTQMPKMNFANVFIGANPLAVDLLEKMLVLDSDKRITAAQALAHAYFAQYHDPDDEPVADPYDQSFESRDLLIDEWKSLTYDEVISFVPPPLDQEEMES
Assay: p38α biochemical assay (ATP turnover, luminescent detection, Cambrex PKlight)
Conditions: p38α kinase; Table 1 Biological Activity
Each record here notes measured IC50.

Which IC50 is reported for this molecule? Cc1nc(-c2ccc(F)cc2)c(-c2nc(C(=O)NC3CCCCC3)cs2)s1 ≤ 1000 nM

Which IC50 reading was recorded for the molecule O=C(NC1CCCCCC1)c1csc(-c2c(-c3ccc(F)cc3)n[nH]c2C2CCNCC2)n1 ? > 1000 nM

Endpoint output: IC50 of Cc1nc(-c2ccc(F)cc2)c(-c2nc(C(=O)N3CCN(c4cc(Cl)ccc4C)CC3)cs2)s1 . Value? > 1000 nM

Form field: reported IC50 of C#CCN(Cc1ccc(Cl)cc1Cl)Cc1onc(-c2ccc(F)cc2)c1-c1nc(C(=O)NC(C)C)cs1 > 1000 nM

Continuing:
Query (molecule): CC(C)NC(=O)c1csc(-c2c(-c3ccc(F)cc3)n[nH]c2C2CCN(C(=O)/C=C/c3ccc(Cl)cc3)CC2)n1 ; field requested: IC50 > 1000 nM

Quick check: IC50 of Cc1nc(-c2ccc(F)cc2)c(-c2nc(C(=O)N3CCN(c4ccccn4)CC3)cs2)s1 ? > 1000 nM

Request the reported IC50 associated with CC(=O)N[C@H]1CCN(Cc2onc(-c3ccc(F)cc3)c2-c2nc(C(=O)NC(C)C)cs2)C1 > 1000 nM

# lookup: IC50 of Cc1nc(-c2ccc(F)cc2)c(-c2nc(C(=O)Nc3ccc(C)c(F)c3)cs2)s1 > 1000 nM

// IC50 lookup, key: Cc1ccc(C(=O)N2CCC(c3[nH]nc(-c4ccc(F)cc4)c3-c3nc(C(=O)NC(C)C)cs3)CC2)cc1C > 1000 nM

Given the entry CC(C)NC(=O)c1csc(-c2oc(CNc3ccccc3C(C)(C)C)nc2-c2ccc(F)cc2)n1 , report its measured IC50. > 1000 nM

IC50 lookup needed for COc1ccc(NCc2onc(-c3ccc(F)cc3)c2-c2nc(C(=O)NC(C)C)cs2)cc1OC , thanks. > 1000 nM

For Cc1ccc(C)c(NC(=O)c2csc(-c3sc(C)nc3-c3ccc(F)cc3)n2)c1 , what is its reported IC50? > 1000 nM

Can you share its IC50? I mean this molecule: CC(C)NC(=O)c1csc(-c2c(-c3ccc(F)cc3)noc2CNCCCn2ccnc2)n1 > 1000 nM

Report IC50 for Cc1nc(-c2ccc(F)cc2)c(-c2nc(C(=O)NCc3ccc(N(C)C)cc3)cs2)s1 please. ≤ 1000 nM

What value of IC50 has been recorded for this entry: CC(C)NC(=O)c1csc(-c2c(-c3ccc(F)cc3)n[nH]c2C2CCN(C(=O)C3Cc4ccccc4CN3C(=O)OC(C)(C)C)CC2)n1 (stereo not drawn) > 1000 nM

Entry under review: CC(C)NC(=O)c1csc(-c2c(-c3ccc(F)cc3)n[nH]c2C2CCN(C(=O)c3c(F)c(F)c(F)c(F)c3F)CC2)n1 . Reported IC50? > 1000 nM
